From: patent US20220273593A1

Molecular target: sEH (Homo sapiens)
Sequence (P34913 1-555): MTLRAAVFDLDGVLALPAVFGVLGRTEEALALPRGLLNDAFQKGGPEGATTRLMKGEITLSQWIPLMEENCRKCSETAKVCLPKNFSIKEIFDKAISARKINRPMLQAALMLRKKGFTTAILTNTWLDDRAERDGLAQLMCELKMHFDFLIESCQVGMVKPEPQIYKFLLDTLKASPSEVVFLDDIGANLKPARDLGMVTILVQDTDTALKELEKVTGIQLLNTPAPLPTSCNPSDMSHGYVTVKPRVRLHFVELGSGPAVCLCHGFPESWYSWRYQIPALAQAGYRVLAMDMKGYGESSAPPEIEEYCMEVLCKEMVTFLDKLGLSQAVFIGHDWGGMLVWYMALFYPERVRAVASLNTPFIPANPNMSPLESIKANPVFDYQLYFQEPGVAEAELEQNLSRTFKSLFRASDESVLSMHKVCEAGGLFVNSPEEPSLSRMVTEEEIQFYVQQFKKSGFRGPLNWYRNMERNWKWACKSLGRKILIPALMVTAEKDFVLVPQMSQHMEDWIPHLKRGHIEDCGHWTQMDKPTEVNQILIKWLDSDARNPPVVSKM
Test: sEH inhibition (cellular)
Type: cell-based
Observable: pIC50
Answers are plain numbers, as −log10 of the molar value.

Prompt: Data request, read-out pIC50, for CC(C)(C)c1ccc(C(=O)NCc2ccc(NS(C)(=O)=O)cc2Cl)cc1
Completion: 9.00
